biological target: ROCK-II (Homo sapiens); assay: ROCK-II biochemical counter-screen; details: read-out: ROCK-II IC50
Sequence (O75116 whole entry, species assumed): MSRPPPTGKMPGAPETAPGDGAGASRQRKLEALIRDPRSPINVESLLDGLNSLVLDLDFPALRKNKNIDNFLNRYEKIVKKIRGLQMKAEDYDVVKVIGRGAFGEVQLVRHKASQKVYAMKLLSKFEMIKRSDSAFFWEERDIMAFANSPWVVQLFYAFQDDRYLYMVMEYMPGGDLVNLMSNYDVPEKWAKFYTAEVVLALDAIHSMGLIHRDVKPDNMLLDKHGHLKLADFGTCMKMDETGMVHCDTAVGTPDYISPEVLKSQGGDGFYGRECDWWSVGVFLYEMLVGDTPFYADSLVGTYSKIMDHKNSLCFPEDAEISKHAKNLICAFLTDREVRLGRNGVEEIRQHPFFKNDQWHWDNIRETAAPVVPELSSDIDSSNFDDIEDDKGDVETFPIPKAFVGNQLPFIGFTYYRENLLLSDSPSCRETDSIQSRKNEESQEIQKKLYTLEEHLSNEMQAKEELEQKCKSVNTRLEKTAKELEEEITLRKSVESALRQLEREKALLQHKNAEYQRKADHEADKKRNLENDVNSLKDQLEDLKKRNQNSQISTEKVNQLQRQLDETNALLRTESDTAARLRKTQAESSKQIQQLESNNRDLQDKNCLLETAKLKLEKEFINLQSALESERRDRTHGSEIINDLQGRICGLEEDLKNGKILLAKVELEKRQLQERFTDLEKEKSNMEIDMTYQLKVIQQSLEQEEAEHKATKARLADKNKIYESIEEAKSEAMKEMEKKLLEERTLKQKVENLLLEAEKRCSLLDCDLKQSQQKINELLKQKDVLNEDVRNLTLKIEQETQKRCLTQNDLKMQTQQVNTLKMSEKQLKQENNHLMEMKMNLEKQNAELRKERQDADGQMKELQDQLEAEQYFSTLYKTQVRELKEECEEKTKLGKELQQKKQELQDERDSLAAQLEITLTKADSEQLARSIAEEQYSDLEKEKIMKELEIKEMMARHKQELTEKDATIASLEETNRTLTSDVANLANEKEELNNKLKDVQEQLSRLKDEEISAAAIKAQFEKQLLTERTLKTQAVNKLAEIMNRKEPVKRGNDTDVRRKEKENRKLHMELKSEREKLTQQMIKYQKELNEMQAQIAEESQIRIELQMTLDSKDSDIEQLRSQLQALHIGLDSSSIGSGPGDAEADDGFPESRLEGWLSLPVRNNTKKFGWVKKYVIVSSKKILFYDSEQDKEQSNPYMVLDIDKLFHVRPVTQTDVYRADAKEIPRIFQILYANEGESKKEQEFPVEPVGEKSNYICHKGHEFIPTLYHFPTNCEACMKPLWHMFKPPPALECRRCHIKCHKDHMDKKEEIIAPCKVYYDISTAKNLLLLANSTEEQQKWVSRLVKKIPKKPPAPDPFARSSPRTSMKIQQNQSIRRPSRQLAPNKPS
Measured Quantity: IC50

Value lookup for IC50; key = COc1ccc(N(CCN(C)C)C(=O)Nc2ccc(-c3ncnc4[nH]cc(C)c34)cc2)cc1 [Compound 18q]
> 10 µM

Could you share which IC50 value was measured for Cc1[nH]c2ncnc(-c3ccc(NC(=O)N(CCN(C)C)c4ccc(Cl)cc4)c(F)c3)c2c1C [Compound 18w] ?
> 20 µM

IC50 lookup needed for Cc1c[nH]c2ncnc(-c3ccc(NC(=O)N(CCO)c4ccccc4)cc3)c12 [Compound 18b] , thanks.
6.57 µM

Can you share its IC50? I mean this molecule: COCCN(C(=O)Nc1ccc(-c2ncnc3[nH]c(C)c(C)c23)cc1F)c1ccc(Cl)cc1 [Compound 18x]
> 20 µM

For the molecule shown here, Cc1c[nH]c2ncnc(-c3ccc(NC(=O)Nc4cccc(C(=O)NC(C)C)c4)c(C(F)(F)F)c3)c12 , give the reported IC50.
0.976 µM

Dear colleague, I am looking for the recorded IC50 of the following molecule: COc1ccc(NC(=O)Nc2ccc(-c3ncnc4[nH]cc(C)c34)cc2)cc1 [Compound 10e]
> 10 µM

What value of IC50 has been reported for the following molecule? Cc1c[nH]c2ncnc(-c3ccc(NC(=O)Nc4ccccc4)cc3)c12 [Compound 10a]
2.36 µM

For Cc1c[nH]c2ncnc(-c3ccc(NC(=O)N(CCN(C)C)c4ccc(Cl)cc4)cc3)c12 [Compound 18r] , what is its reported IC50?
> 10 µM
